# targetOrSystem: human-type PPAR α ligand-binding domain (Homo sapiens)
# Construct: made in house; host or cells: Escherichia coli
# Sequence (Q07869 239-466 limits assumed): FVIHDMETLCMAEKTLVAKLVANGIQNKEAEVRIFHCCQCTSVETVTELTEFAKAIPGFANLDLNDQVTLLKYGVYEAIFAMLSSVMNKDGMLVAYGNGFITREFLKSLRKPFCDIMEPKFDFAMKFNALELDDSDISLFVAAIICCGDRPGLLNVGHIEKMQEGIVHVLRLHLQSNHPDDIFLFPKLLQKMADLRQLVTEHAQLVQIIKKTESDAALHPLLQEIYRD
# testDescription: Competition binding with [3H]KRP-297 to 6×His-hPPARα ligand-binding domain
# runParameters: competition with 100 nM [3H]KRP-297; test concentration not given
# From the text: Proteins (6×His-hPPARs LBD) tagged 6-copy histidine to the side of N-termini in the ligand-binding domains of human-type PPAR α and PPAR γ were expressed in Escherichia coli, respectively, and purified through a nickel column.
I'd appreciate it if you could supply Binding to the ligand-binding domain of PPARα values for the items below.
Number only, in %; omit the unit.

GET /values?readout=Binding to the ligand-binding domain of PPARα&item= CCCCCCCCCCCCCCCCCC(=O)SCCNC(=O)CCNC(=O)[C@H](O)C(C)(C)COP(=O)(O)OP(=O)(O)OC[C@H]1O[C@@H](n2cnc3c(N)ncnc32)[C@H](O)[C@@H]1OP(=O)(O)O [Stearoyl CoA]
94

GET /values?readout=Binding to the ligand-binding domain of PPARα&item= CCCCC/C=C\C/C=C\C/C=C\C/C=C\CCCC(=O)SCCNC(=O)CCNC(=O)[C@H](O)C(C)(C)COP(=O)(O)OP(=O)(O)OC[C@H]1O[C@@H](n2cnc3c(N)ncnc32)[C@H](O)[C@@H]1OP(=O)(O)O [Arachidonoyl CoA]
54

Values compiled from patent US6762171B1.
